- Species on record: Cavia porcellus
- assayName: Positive inotropic activity in electrically driven guinea pig atria assessed as maximal concentration required to increase in […]
- Format: functional
outcomeMeasure: Activity (µM/g)
State just the number; it will be interpreted in µM/g.

lineNotation: CO[C@H]1C[C@@H]2[C@H](CC[C@]3(C)C(=O)CC[C@@H]23)[C@@]2(C)CC/C(=N\OCCN)C[C@H]12.Cl
unitOfMeasurement: µM/g
Activity: 18

**Q:** Look up Activity for this compound: "COC[C@H]1C[C@@H]2[C@H](CC[C@]3(C)C(=O)CC[C@@H]23)[C@@]2(C)CC/C(=N\O[C@@H]3CCNC3)C[C@H]12.O=C(O)/C=C/C(=O)O"
**A:** 12

----------
- assayName: Inhibition of dog kidney Na+K+-ATPase assessed as hydrolysis of [32P]ATP
- Parameters: species or system Canis lupus familiaris
pIC50: −log10 of the molar value.
// map pIC50 onto a label; ranges low: < 6; middle: ≥ 6 and < 7; high: ≥ 7

Record excerpt, results attached:
lineNotation: C=C[C@H]1C[C@@H]2[C@H](CC[C@]3(C)C(=O)CC[C@@H]23)[C@@]2(C)CC/C(=N\OCCN)C[C@H]12
class: middle
//
lineNotation: C[C@]12CC/C(=N\OCCN)C[C@@H]1[C@@H](C(=O)O)C[C@@H]1[C@@H]2CC[C@]2(C)C(=O)CC[C@@H]12
class: low
//
lineNotation: C=C1C[C@@H]2[C@H](CC[C@]3(C)C(=O)CC[C@@H]23)[C@@]2(C)CC/C(=N\O[C@@H]3CCNC3)C[C@H]12
class: high
//
lineNotation: CNCCCO/N=C1\CC[C@@]2(C)[C@H](C1)[C@@H](C(=O)OC)C[C@@H]1[C@@H]2CC[C@]2(C)C(=O)CC[C@@H]12
class: low
//
lineNotation: C=C1C[C@@H]2[C@H](CC[C@]3(C)C(=O)CC[C@@H]23)[C@@]2(C)CC/C(=N\OCCN)C[C@H]12
class: high
//
lineNotation: C#C[C@H]1C[C@@H]2[C@H](CC[C@]3(C)C(=O)CC[C@@H]23)[C@@]2(C)CC/C(=N\OCCN)C[C@H]12.Cl
class: middle
//
lineNotation: C[C@]12CC/C(=N\O[C@@H]3CCNC3)C[C@@H]1[C@@H](CO)C[C@@H]1[C@@H]2CC[C@]2(C)C(=O)CC[C@@H]12
class: high
//
lineNotation: C[C@]12CC/C(=N\O[C@@H]3CCNC3)C[C@@H]1[C@@H](CCO)C[C@@H]1[C@@H]2CC[C@]2(C)C(=O)CC[C@@H]12.Cl
class: high
//
lineNotation: CO/N=C1\C[C@@H]2[C@H](CC[C@]3(C)C(=O)CC[C@@H]23)[C@@]2(C)CC/C(=N\OCCN)C[C@H]12.Cl
class: high
//
lineNotation: C=CCO/N=C1\C[C@@H]2[C@H](CC[C@]3(C)C(=O)CC[C@@H]23)[C@@]2(C)CC/C(=N\OCCN)C[C@H]12
class: low

**Q:** Exam item: assign "COC(=O)[C@H]1C[C@@H]2[C@H](CC[C@]3(C)C(=O)CC[C@@H]23)[C@@]2(C)CC/C(=N\OCCN)C[C@H]12" to the correct category.
**A:** middle

----------
Entries and their Emax
- System: Cavia porcellus
- assayName: Positive inotropic activity in guinea pig atria assessed as increase in […] at 0.16 ml/min, iv
- Type: functional
Report as a plain number; the unit % is understood.

Solved cases below.
lineNotation: CO/N=C1\C[C@@H]2[C@H](CC[C@]3(C)C(=O)CC[C@@H]23)[C@@]2(C)CC/C(=N\OCCN)C[C@H]12.Cl
resultNumber: 183

lineNotation: COC(=O)[C@H]1C[C@@H]2[C@H](CC[C@]3(C)C(=O)CC[C@@H]23)[C@@]2(C)CC/C(=N\O[C@@H]3CCNC3)C[C@H]12.Cl
resultNumber: 164

lineNotation: C[C@]12CC/C(=N\O[C@@H]3CCNC3)C[C@@H]1[C@@H](C(N)=O)C[C@@H]1[C@@H]2CC[C@]2(C)C(=O)CC[C@@H]12.Cl
resultNumber: 109

Turning now to a further compound:
**Q:** Quick one: Emax for "COC[C@H]1C[C@@H]2[C@H](CC[C@]3(C)C(=O)CC[C@@H]23)[C@@]2(C)CC/C(=N\O[C@@H]3CCNC3)C[C@H]12.O=C(O)/C=C/C(=O)O" ?
**A:** 201

----------
- Species on record: Cavia porcellus
- assayName: Positive inotropic activity in electrically driven guinea pig atria assessed as maximal concentration required to increase in […]
- Type: functional
Quick reference: Activity of the listed items.
Only the number, expressed in µM/g, is required.

Worked examples follow.
lineNotation: C[C@]12CC/C(=N\O[C@@H]3CCNC3)C[C@@H]1C(=C(F)F)C[C@@H]1[C@@H]2CC[C@]2(C)C(=O)CC[C@@H]12.Cl
outcomeMeasure: Activity
unitOfMeasurement: µM/g
resultNumber: 18
--
lineNotation: C[C@H]1C[C@@H]2[C@H](CC[C@]3(C)C(=O)CC[C@@H]23)[C@@]2(C)CC/C(=N\OCCN)C[C@H]12.Cl
outcomeMeasure: Activity
unitOfMeasurement: µM/g
resultNumber: 5.8
--
lineNotation: C[C@]12CC/C(=N\O[C@@H]3CCNC3)C[C@@H]1[C@@H](NC=O)C[C@@H]1[C@@H]2CC[C@]2(C)C(=O)CC[C@@H]12.Cl
outcomeMeasure: Activity
unitOfMeasurement: µM/g
resultNumber: 6

**Q:** Query: Activity; subject: "C#C[C@H]1C[C@@H]2[C@H](CC[C@]3(C)C(=O)CC[C@@H]23)[C@@]2(C)CC/C(=N\O[C@@H]3CCNC3)C[C@H]12.Cl"
**A:** 6

----------
The reader will find reported Emax values listed item by item below.
- Tested on: Cavia porcellus
- assayName: Positive inotropic activity in guinea pig atria assessed as increase in […] at 0.16 ml/min, iv
- Assay type: functional
Note: unit % is implicit; provide only the numeric part.

// known answers, use as guide
lineNotation: C[C@]12CC/C(=N\OCCN)C[C@@H]1[C@@H](CO)C[C@@H]1[C@@H]2CC[C@]2(C)C(=O)CC[C@@H]12.Cl
targetOrSystem: Cavia porcellus
resultNumber: 166

lineNotation: C[C@]12CC/C(=N\OCCN)C[C@@H]1[C@@H](CCO)C[C@@H]1[C@@H]2CC[C@]2(C)C(=O)CC[C@@H]12.Cl
targetOrSystem: Cavia porcellus
resultNumber: 238

lineNotation: C[C@]12CC/C(=N\O[C@@H]3CCNC3)C[C@@H]1/C(=N/O)C[C@@H]1[C@@H]2CC[C@]2(C)C(=O)CC[C@@H]12.Cl
targetOrSystem: Cavia porcellus
resultNumber: 144

lineNotation: C[C@]12CC/C(=N\OCCN)C[C@@H]1[C@@H](NC=O)C[C@@H]1[C@@H]2CC[C@]2(C)C(=O)CC[C@@H]12.O=C(O)/C=C/C(=O)O
targetOrSystem: Cavia porcellus
resultNumber: 174

lineNotation: C[C@]12CC/C(=N\OCCN)C[C@@H]1/C(=N/O)C[C@@H]1[C@@H]2CC[C@]2(C)C(=O)CC[C@@H]12.Cl
targetOrSystem: Cavia porcellus
resultNumber: 180

Okay, next one:
**Q:** Form field - read-out: Emax; system: Cavia porcellus; submitted item: "C#C[C@H]1C[C@@H]2[C@H](CC[C@]3(C)C(=O)CC[C@@H]23)[C@@]2(C)CC/C(=N\OCCN)C[C@H]12.Cl"
**A:** 163
